As shown below, each of these compounds has a reported CANP Inhibitory Activity ID50 (mole/mole) value.
Molecular target: calcium-activated neutral thiolprotease (CANP) (Gallus gallus, UniProt P00789)
Construct: CANP prepared from a muscle of hereditary muscular dystrophy chicken; from tissue; host or cells: muscle of hereditary muscular dystrophy chicken
Sequence (P00789 whole entry): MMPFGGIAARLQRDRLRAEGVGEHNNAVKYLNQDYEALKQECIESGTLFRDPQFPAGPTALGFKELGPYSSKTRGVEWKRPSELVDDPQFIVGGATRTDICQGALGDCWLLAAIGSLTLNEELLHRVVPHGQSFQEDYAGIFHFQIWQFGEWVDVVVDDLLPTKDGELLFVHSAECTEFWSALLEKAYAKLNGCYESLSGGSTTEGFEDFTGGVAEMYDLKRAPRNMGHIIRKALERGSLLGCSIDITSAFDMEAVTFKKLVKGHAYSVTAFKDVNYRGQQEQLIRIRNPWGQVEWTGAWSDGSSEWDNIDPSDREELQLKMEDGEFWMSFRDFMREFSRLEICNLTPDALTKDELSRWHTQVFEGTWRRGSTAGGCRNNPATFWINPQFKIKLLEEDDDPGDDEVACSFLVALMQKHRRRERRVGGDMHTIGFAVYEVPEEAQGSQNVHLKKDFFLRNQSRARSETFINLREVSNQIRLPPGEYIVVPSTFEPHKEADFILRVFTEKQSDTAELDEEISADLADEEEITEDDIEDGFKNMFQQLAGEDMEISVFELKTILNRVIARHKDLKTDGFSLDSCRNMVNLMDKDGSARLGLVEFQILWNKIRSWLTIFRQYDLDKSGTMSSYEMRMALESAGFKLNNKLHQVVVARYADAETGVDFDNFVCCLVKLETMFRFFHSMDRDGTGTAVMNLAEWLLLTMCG
Test: CANP inhibitory activity (method of Ishiura et al)
Type: biochemical
Conditions: 50% inhibition as molar ratio to the enzyme; CANP from muscle of hereditary muscular dystrophy chicken
Counter-ions that a name gives are not always drawn.
All answers are understood in mole/mole, so give the number only.

Consider the following illustrative entries.
{"compound": "COC(=O)[C@H](C)NC(=O)[C@@H](NC(=O)C1OC1C(=O)OCc1ccccc1)C(C)C (some centres unmarked)", "measured target": "calcium-activated neutral thiolprotease (CANP) (Gallus gallus, UniProt P00789)", "unit descriptor": "mole/mole", "observed value": 120}
{"compound": "CC(C)C[C@H](NC(=O)C1OC1C(=O)O)C(=O)NC(C)C (mixture of isomers) [Compound 15, potassium salt]", "measured target": "calcium-activated neutral thiolprotease (CANP) (Gallus gallus, UniProt P00789)", "unit descriptor": "mole/mole", "observed value": 35}
{"compound": "CCOC(=O)C1OC1C(=O)N[C@@H](CC(C)C)C(=O)OCc1ccccc1 (some centres unmarked) [C, reference compound]", "measured target": "calcium-activated neutral thiolprotease (CANP) (Gallus gallus, UniProt P00789)", "unit descriptor": "mole/mole", "observed value": 580}
{"compound": "COC(=O)[C@H](CCCN=C(N)N)NC(=O)[C@H](CC(C)C)NC(=O)C1OC1C(=O)O (mixture of isomers)", "measured target": "calcium-activated neutral thiolprotease (CANP) (Gallus gallus, UniProt P00789)", "unit descriptor": "mole/mole", "observed value": 100}
{"compound": "O=C(O)[C@H]1O[C@@H]1C(=O)OCc1ccccc1 (relative stereo) [B, Benzyl hydrogen epoxysuccinate, reference compound]", "measured target": "calcium-activated neutral thiolprotease (CANP) (Gallus gallus, UniProt P00789)", "unit descriptor": "mole/mole", "observed value": 410}

**Q:** Need CANP Inhibitory Activity ID50 (mole/mole), item O=C(O)C1OC1C(=O)N[C@@H](Cc1ccccc1)C(=O)OCc1ccccc1 (some centres unmarked) [D, reference compound]
**A:** 574

**Q:** Endpoint output: CANP Inhibitory Activity ID50 (mole/mole) of COC(=O)[C@H](CC(C)C)NC(=O)[C@H](Cc1ccccc1)NC(=O)C1OC1C(=O)OCc1ccccc1 (some centres unmarked) . Value?
**A:** 200

**Q:** Please report the recorded CANP Inhibitory Activity ID50 (mole/mole) for CC(C)C[C@H](NC(=O)C1OC1C(=O)O)C(=O)NCCc1ccccc1 (mixture of isomers) [Compound 16, potassium salt] .
**A:** 90

====

Molecular target: papain (Carica papaya)
Construct: purchased Sigma Chem. Co
Sequence (P00784 134-345): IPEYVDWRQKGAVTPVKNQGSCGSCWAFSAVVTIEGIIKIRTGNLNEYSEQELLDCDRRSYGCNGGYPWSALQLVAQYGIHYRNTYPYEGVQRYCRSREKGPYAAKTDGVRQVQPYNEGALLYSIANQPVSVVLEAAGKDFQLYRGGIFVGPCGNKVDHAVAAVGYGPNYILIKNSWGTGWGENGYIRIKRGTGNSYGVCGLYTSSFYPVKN
Test: Papain inhibitory activity (method of K. Hanada et al)
Format: biochemical
Conditions: papain 80 ug/ml, Sigma, 2 x cry.
metric name: Papain ID50 (amount of inhibitor for 50% inhibition) (µg)
State the answer as a number, implicitly in µg.

{"compound": "COC(=O)[C@H](CC(C)C)NC(=O)[C@@H](CC(C)C)NC(=O)C1OC1C(=O)OCc1ccccc1 (mixture of isomers) [Compound 22]", "observed value": 8.28}
{"compound": "COC(=O)C1OC1C(=O)N[C@@H](CC(C)C)C(=O)N[C@@H](CCSC)C(=O)OC (stereo partly shown) [Compound 28]", "observed value": 0.156}
{"compound": "CCC(C)[C@H](NC(=O)C1OC1C(=O)OCc1ccccc1)C(=O)N[C@H](C(=O)OC)C(C)C (stereo partly shown) [Compound 41]", "observed value": 0.272}
{"compound": "CC(C)C[C@H](NC(=O)C1OC1C(=O)OCc1ccccc1)C(=O)N[C@@H](CC(C)C)C(=O)OCc1ccccc1 (mixture of isomers) [Compound 17]", "observed value": 0.255}
{"compound": "CCCNC(=O)[C@H](CC(C)C)NC(=O)C1OC1C(=O)OCC (stereo partly shown) [Compound 9]", "observed value": 0.313}

**Q:** Entry CCOC(=O)C1OC1C(=O)N[C@@H](CC(C)C)C(=O)NC1CC1 (stereo partly shown) [Compound 5] has what Papain ID50 (amount of inhibitor for 50% inhibition)?
**A:** 0.284

**Q:** Recorded Papain ID50 (amount of inhibitor for 50% inhibition) of COC(=O)[C@@H](CC(C)C)NC(=O)[C@H](CC(C)C)NC(=O)[C@@H]1O[C@H]1C(=O)OCc1ccccc1 [Compound 24] , please.
**A:** 0.219

**Q:** Consider the compound shown here: COC(=O)[C@@H](CC(C)C)NC(=O)[C@H](CC(C)C)NC(=O)[C@H]1O[C@@H]1C(=O)OCc1ccccc1 [Compound 25] What is its recorded Papain ID50 (amount of inhibitor for 50% inhibition)?
**A:** 0.223

**Q:** Look at this compound and give its reported Papain ID50 (amount of inhibitor for 50% inhibition). CC(C)C[C@H](NC(=O)C1OC1C(=O)O)C(=O)N[C@@H](CC(C)C)C(=O)OCc1ccccc1 (mixture of isomers) [Compound 48]
**A:** 0.215

**Q:** Recorded Papain ID50 (amount of inhibitor for 50% inhibition) for CCOC(=O)[C@H](Cc1ccccc1)NC(=O)[C@H](CC(C)C)NC(=O)C1OC1C(=O)OCc1ccccc1 (stereo partly shown) [Compound 31] , please?
**A:** 0.375

====

Reported Papain ID50 (amount of inhibitor for 50% inhibition) by item:
Target: papain (Carica papaya)
Construct: purchased Sigma Chem. Co
Test: Papain inhibitory activity (method of K. Hanada et al)
Type: biochemical
Settings: papain 80 ug/ml, Sigma, 2 x cry.
Quick reminder: number only, in µg, skip the unit.

{"compound": "CC(C)C[C@H](NC(=O)C1OC1C(=O)O)C(=O)N[C@@H](CCCN)C(=O)O (mixture of isomers)", "observed value": 0.250}

**Q:** Entry under review: CC(C)C[C@H](NC(=O)C1OC1C(=O)OCc1ccccc1)C(=O)N(C)C (mixture of isomers) . Reported Papain ID50 (amount of inhibitor for 50% inhibition)?
**A:** 0.184

**Q:** I have this compound here, CC(C)C[C@H](NC(=O)C1OC1C(=O)OCc1ccccc1)C(=O)N(C)c1ccccc1 (mixture of isomers) , and I need its recorded Papain ID50 (amount of inhibitor for 50% inhibition).
**A:** 0.510

**Q:** Which Papain ID50 (amount of inhibitor for 50% inhibition) is listed for COC(=O)[C@H](CCSC)NC(=O)[C@H](CC(C)C)NC(=O)C1OC1C(=O)OCc1ccccc1 (stereo partly shown) ?
**A:** 0.216

====

Assay: Concentration of test compound in rat plasma after subcutaneous administration
Format: in vivo
Details: sc, 50 mg/kg, an hour after administration
metric name: concentration at 1 h

Guide cases for concentration at 1 h, answers given:
{"molecule": "CC(C)C[C@H](NC(=O)C1OC1C(=O)O)C(=O)O (stereo partly drawn) [E, reference compound]", "concentration at 1 h": "< 1000 ng/mL"}
{"molecule": "O=C(O)[C@H]1O[C@@H]1C(=O)OCc1ccccc1 (relative stereo) [B, Benzyl hydrogen epoxysuccinate, reference compound]", "concentration at 1 h": "< 1000 ng/mL"}

**Q:** Which measured concentration at 1 h value corresponds to O=C(O)C1OC1C(=O)N[C@@H](Cc1ccccc1)C(=O)OCc1ccccc1 (stereo partly drawn) [D, reference compound] ?
**A:** < 1000 ng/mL

====

Let's look at some compounds and their measured CANP Inhibitory Activity ID50 (mole/mole).
Target: calcium-activated neutral thiolprotease (CANP) (Gallus gallus, UniProt P00789)
Construct: CANP prepared from a muscle of hereditary muscular dystrophy chicken; from tissue; host or cells: muscle of hereditary muscular dystrophy chicken
Assay: CANP inhibitory activity (method of Ishiura et al)
Type: biochemical
Conditions: 50% inhibition as molar ratio to the enzyme; CANP from muscle of hereditary muscular dystrophy chicken
// return numeric value only (unit: mole/mole, not printed)

Study these solved cases before continuing.
{"compound": "CC[C@H](C)[C@H](NC(=O)C1OC1C(=O)OCc1ccccc1)C(=O)N(C)Cc1ccccc1 (mixture of isomers)", "measured target": "calcium-activated neutral thiolprotease (CANP) (Gallus gallus, UniProt P00789)", "observed value": 65}
{"compound": "COC(=O)[C@@H]1CCCN1C(=O)[C@H](CC(C)C)NC(=O)C1OC1C(=O)OCc1ccccc1 (mixture of isomers)", "measured target": "calcium-activated neutral thiolprotease (CANP) (Gallus gallus, UniProt P00789)", "observed value": 23}
{"compound": "CC(C)C[C@H](NC(=O)[C@H](CC(C)C)NC(=O)C1OC1C(=O)O)C(=O)O (mixture of isomers)", "measured target": "calcium-activated neutral thiolprotease (CANP) (Gallus gallus, UniProt P00789)", "observed value": 64}

**Q:** Name the reported CANP Inhibitory Activity ID50 (mole/mole) value associated with the compound CC(C)C[C@H](NC(=O)C1OC1C(=O)OCc1ccccc1)C(=O)N[C@@H](CCCNC(=O)OCc1ccccc1)C(=O)OCc1ccccc1 (mixture of isomers)
**A:** 100
